ASSAY TARGET: T1, 4H3417-AA
T1 chain: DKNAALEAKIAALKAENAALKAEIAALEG
ASSAY PROTOCOL: two-hybrid library CCmax;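 also: natural log of median RNA to DNA barcode read ratio; higher means stronger binding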
STATED CONDITIONS: mean of both orientations
TEST READOUT: interaction score

{"columns": ["BINDER", "REPORTED"],
 "data": [
  ["DKIAALKAKNAALKAENAALEAKIAALEG [4H3029-AA]", -1.74],
  ["DENAALEAEIAALKAENAALEAKIAALEG [4H1109-AA]", 0.592],
  ["DENAALKAKIAALEAKNAALKAKIAALKG [4H1854-AA]", 1.7],
  ["DENAALEAKIAALKAEIAALEAENAALKG [4H1348-AA]", -1.13],
  ["DENAALKAKIAALEAENAALEAEIAALEG [4H1809-AA]", -0.579],
  ["DKIAALEAENAALKAEIAALEAKNAALKG [4H2248-AA]", 0.548],
  ["DKIAALKAKNAALKAKNAALKAEIAALKG [4H3066-AA]", -2.18],
  ["DKIAALKAKNAALEAEIAALEAENAALKG [4H2948-AA]", 0.478],
  ["DEIAALEAENAALEAENAALEAEIAALKG [4H146-AA]", -0.477],
  ["DENAALEAEIAALKAKNAALKAEIAALKG [4H1146-AA]", 0.618],
  ["DKIAALKAENAALEAKNAALEAKIAALKG [4H2742-AA]", -1.41],
  ["DENAALEAEIAALEAEIAALKAENAALEG [4H1035-AA]", -1.73],
  ["DKIAALEAENAALKAKIAALKAENAALEG [4H2283-AA]", 1.63],
  ["DKIAALKAENAALEAENAALKAEIAALEG [4H2713-AA]", -1.19],
  ["DEIAALKAKNAALKAKIAALEAKNAALKG [4H1000-AA]", -0.644],
  ["DEIAALEAENAALEAKNAALKAKIAALEG [4H189-AA]", -1.19],
  ["DKNAALEAEIAALEAENAALKAKIAALKG [4H3102-AA]", 2.29],
  ["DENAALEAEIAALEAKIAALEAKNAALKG [4H1064-AA]", -1.43],
  ["DENAALEAKIAALKAKIAALKAKNAALEG [4H1391-AA]", -1.93],
  ["DKNAALEAEIAALEAKNAALEAEIAALEG [4H3121-AA]", -1.39],
  ["DKIAALKAKNAALEAKIAALKAKNAALEG [4H2991-AA]", -1.68]
]}
